experimental_target: Glucocorticoid Receptor (GR) (Homo sapiens)
Sequence (P04150 whole entry): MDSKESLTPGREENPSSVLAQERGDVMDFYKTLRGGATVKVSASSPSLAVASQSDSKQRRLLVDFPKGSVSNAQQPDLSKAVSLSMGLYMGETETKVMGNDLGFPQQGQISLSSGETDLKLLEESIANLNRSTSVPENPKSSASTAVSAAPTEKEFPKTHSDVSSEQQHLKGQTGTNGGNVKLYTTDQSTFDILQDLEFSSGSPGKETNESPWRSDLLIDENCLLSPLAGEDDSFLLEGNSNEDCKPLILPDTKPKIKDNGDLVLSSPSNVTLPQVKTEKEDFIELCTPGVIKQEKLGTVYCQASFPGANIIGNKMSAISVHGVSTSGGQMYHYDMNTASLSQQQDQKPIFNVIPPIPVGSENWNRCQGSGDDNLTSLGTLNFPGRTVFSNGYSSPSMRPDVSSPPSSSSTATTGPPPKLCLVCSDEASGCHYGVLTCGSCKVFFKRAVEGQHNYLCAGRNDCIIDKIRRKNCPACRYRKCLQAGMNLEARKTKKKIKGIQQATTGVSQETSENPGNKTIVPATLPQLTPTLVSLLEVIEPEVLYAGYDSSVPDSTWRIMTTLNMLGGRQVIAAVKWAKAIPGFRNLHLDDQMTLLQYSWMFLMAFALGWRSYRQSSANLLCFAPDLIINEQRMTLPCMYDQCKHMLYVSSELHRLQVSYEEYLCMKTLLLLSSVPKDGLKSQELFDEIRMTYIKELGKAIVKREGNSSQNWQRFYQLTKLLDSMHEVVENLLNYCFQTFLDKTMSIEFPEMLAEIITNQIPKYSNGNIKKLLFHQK
pIC50: −log10 of the molar value.
Overview of reported pIC50 across a group of compounds:

- compound: "CCn1nc(-c2ccccn2)c2c1NCCCC2c1ccc(Br)cc1 (stereo not shown)"
  pIC50: "> 7.00"
- compound: "Cc1cc(Cl)ccc1C1SCCNc2c1c(C)nn2C (stereo not shown)"
  pIC50: "6.00 to 7.00"
- compound: "COc1ccc(C)c(C2SCCNc3c2c(-c2ccccn2)nn3C)c1 (stereo not shown)"
  pIC50: "5.00 to 6.00"
- compound: "Cc1nn(C)c2c1C(c1ccc(Cl)cc1Cl)[S+]([O-])C(C)(C)CN2 (stereo not shown)"
  pIC50: "< 5.00"
- compound: "Cn1nc(-c2ccccn2)c2c1NCCSC2c1ccc(Cl)cc1CF (stereo not shown)"
  pIC50: "> 7.00"
- compound: "Cc1cc(Cl)ccc1[C@H]1SC[C@H](C)Nc2c1c(-c1ccccn1)nn2C"
  pIC50: "5.00 to 6.00"
- compound: "Cn1nc(-c2ccccn2)c2c1NCCSC2c1ccc(-c2cncc(S(C)(=O)=O)c2)cc1Cl (stereo not shown) [U.1, tris(trifluoroacetate)]"
  pIC50: "5.00 to 6.00"
- compound: "CCn1nc(-c2ccccn2)c2c1NCCSC2c1ccc(Br)cc1C (stereo not shown)"
  pIC50: "> 7.00"
- compound: "Cc1nn(C)c2c1C(c1ccc(Cl)cc1Cl)SC(C)(C)CN2C=O (stereo not shown)"
  pIC50: "5.00 to 6.00"
- compound: "CCn1nc(-c2ccccn2)c2c1NCCSC2c1ccc(C(=O)Nc2n[nH]c(C)c2C#N)cc1C (stereo not shown)"
  pIC50: "> 7.00"
- compound: "CCn1nc(-c2ccccn2)c2c1N[C@@H](C)CS[C@H]2c1ccc(CCC(C)(C)N)cc1C"
  pIC50: "6.00 to 7.00"
- compound: "Cn1nc(-c2ccccc2)c2c1NCCSC2c1ccc(Cl)cc1Cl (stereo not shown)"
  pIC50: "> 7.00"
- compound: "Cn1nc(-c2ccc(Cl)cc2)c2c1NCCSC2c1ccc(Cl)cc1Cl (stereo not shown)"
  pIC50: "6.00 to 7.00"
- compound: "CCn1nc(-c2ccccn2)c2c1N[C@H](C)CS[C@H]2c1ccc(CCCO)cc1C (single isomer, unassigned)"
  pIC50: "> 7.00"
- compound: "COc1ccc(C2SCCNc3c2c(-c2ccccn2)nn3C)c(C)c1 (stereo not shown)"
  pIC50: "> 7.00"
- compound: "Cc1cc(Cl)ccc1C1SCCNc2c1c(-c1ccccn1)nn2C(C)C (stereo not shown)"
  pIC50: "> 7.00"
- compound: "C=Cc1cc(Cl)ccc1C1SCCNc2c1c(-c1ccccn1)nn2C (stereo not shown)"
  pIC50: "> 7.00"
- compound: "CCn1nc(-c2ccccn2)c2c1N[C@H](C)CS[C@H]2c1ccc(C#CC(C)(C)O)cc1C (single isomer, unassigned)"
  pIC50: "> 7.00"
- compound: "Cc1cc(F)ccc1C1SCCNc2c1c(-c1ccccn1)nn2C (stereo not shown)"
  pIC50: "> 7.00"

* * *

System: IL-6 in A549 cells stimulated with IL-1β
experiment_summary: A549 Cell Assay to Measure Inflammation Markers (inhibition of IL-1β-induced IL-6)
Type: cell-based
study_conditions: Homo sapiens, A549, A549 Cell Assay to Measure Inflammation Markers; intrinsic activity, Emax class ranges
Overview of reported Emax across a group of compounds:

- compound: "Cc1cc(Cl)ccc1[C@@H]1S[C@H](CCO)CNc2c1c(-c1ccccn1)nn2C (single isomer, unassigned)"
  Emax: "< 50%"
- compound: "Cc1cc(Cl)ccc1C1SCCNc2c1c(-c1ccccn1)nn2C (single isomer, unassigned)"
  Emax: "< 50%"
- compound: "Cn1nc(-c2ccccn2)c2c1NCCSC2c1ccc(Cl)cc1CF (stereo not shown)"
  Emax: "> 60%"
- compound: "CCn1nc(-c2ccccn2)c2c1N[C@H](C)CS[C@H]2c1ccc(C(N)=O)cc1C (single isomer, unassigned)"
  Emax: "> 50%"
- compound: "CCn1nc(-c2ccccn2)c2c1NCCSC2c1ccc(C(=O)Nc2cccnc2C)cc1C (stereo not shown) [H.4]"
  Emax: "> 70%"
- compound: "Cn1nc(-c2ccncc2)c2c1NCCSC2c1ccc(Cl)cc1Cl (stereo not shown)"
  Emax: "< 50%"
- compound: "CC(C)c1nn(C)c2c1C(c1ccc(Cl)cc1Cl)SC(C)(C)CN2 (stereo not shown)"
  Emax: "< 50%"
- compound: "Cc1cc(C#N)ccc1C1SCC(C)Nc2c1c(-c1ccccn1)nn2C (stereo not shown)"
  Emax: "> 70%"
- compound: "Cc1ccc(C#N)cc1C1SC(C)(C)CNc2c1c(C1CC1)nn2C (stereo not shown)"
  Emax: "< 50%"
- compound: "Cc1cc(C(=O)Nc2cccnc2C)ccc1[C@@H]1SC[C@H](C)Nc2c1c(-c1ccncn1)nn2C (single isomer, unassigned)"
  Emax: "> 70%"
- compound: "Cc1n[nH]c2c1C(c1ccc(Cl)cc1Cl)SC(C)(C)CN2 (stereo not shown)"
  Emax: "< 50%"
- compound: "Cc1cc(Br)ccc1[C@H]1SC[C@@H](C(F)(F)F)Nc2c1c(-c1ccccn1)nn2C (racemic)"
  Emax: "< 50%"
- compound: "CCn1nc(-c2ccccn2)c2c1NCCSC2c1ccc(C(=O)Nc2nncs2)cc1C (stereo not shown)"
  Emax: "< 50%"
- compound: "CCn1nc(-c2ccccn2)c2c1NCCSC2c1ccc(C(=O)Nc2nnc[nH]2)cc1C (stereo not shown)"
  Emax: "> 70%"
- compound: "Cc1cc(-c2nn(C)c3c2C(c2ccc(Cl)cc2C)SCCN3)no1 (stereo not shown)"
  Emax: "< 50%"
- compound: "Cc1cc(Cl)ccc1C1SCCNc2c1c(-c1ccn[nH]1)nn2C (stereo not shown)"
  Emax: "< 50%"
- compound: "C=Cc1cc(Cl)ccc1C1SCCNc2c1c(-c1ccccn1)nn2C (stereo not shown)"
  Emax: "> 60%"
- compound: "CCn1nc(-c2ccccn2)c2c1NCCSC2c1ccc(C(=O)Nc2n[nH]c(C)c2C#N)cc1C (stereo not shown)"
  Emax: "< 50%"
- compound: "Cc1nn(C)c2c1C(c1ccc(Cl)cc1Cl)SC(C)(C)CN2C=O (stereo not shown)"
  Emax: "< 50%"
- compound: "CCn1nc(-c2ccccn2)c2c1NC(=O)CCC2c1ccc(C(=O)Nc2cccnc2C)cc1C (stereo not shown)"
  Emax: "> 70%"
- compound: "CC(C)c1nn(C)c2c1C(c1ccc(Cl)cc1Cl)SCCN2 (stereo not shown)"
  Emax: "< 50%"
- compound: "CCn1nc(-c2ccccn2)c2c1NCCCC2c1ccc(Br)cc1 (stereo not shown)"
  Emax: "> 70%"
- compound: "Cc1cc(Br)ccc1[C@H]1SC[C@H](C(N)=O)Nc2c1c(-c1ccccn1)nn2C (racemic)"
  Emax: "< 50%"
- compound: "Cc1cc(S(C)(=O)=O)ccc1C1SCCNc2c1c(-c1ccccn1)nn2C (stereo not shown)"
  Emax: "< 50%"
- compound: "CCn1nc(-c2ccccn2)c2c1NCCSC2c1ccc(C(=O)Nc2cc(C)nn2C)cc1C (stereo not shown)"
  Emax: "> 70%"
- compound: "COC(=O)c1cc(C2SCCNc3c2c(-c2ccccn2)nn3C)c(C)s1 (stereo not shown)"
  Emax: "< 50%"
- compound: "Cc1nn(C)c2c1C(c1ccc(Cl)cc1Cl)SCCN2 (stereo not shown)"
  Emax: "< 50%"
- compound: "Cc1cc(-c2nn(C)c3c2C(c2ccc(Br)cc2C)SCCN3)on1 (stereo not shown)"
  Emax: "< 50%"
- compound: "Cc1cc(C#N)ccc1C1SCCNc2c1c(-c1ccccn1)nn2C (stereo not shown) [G.8]"
  Emax: "> 60%"
- compound: "CCn1nc(-c2ccccn2)c2c1NCCSC2c1ccc(C#N)cc1C (stereo not shown) [G.10]"
  Emax: "> 70%"
- compound: "Cn1nc(-c2ccccn2)c2c1NCCSC2c1ccc(C(=O)O)cc1Cl (stereo not shown)"
  Emax: "< 50%"
- compound: "Cc1ccc(Cl)cc1C1SCCNc2c1c(-c1ccccn1)nn2C (stereo not shown)"
  Emax: "< 50%"
- compound: "Cn1nc(C2CC2)c2c1NCC(C)(C)SC2c1ccc(Cl)cc1F (single isomer, unassigned) [M.3]"
  Emax: "< 50%"
- compound: "Cc1ncccc1NC(=O)c1ccc(C2SCCNc3c2c(-c2ccccn2)nn3C)cc1 (stereo not shown)"
  Emax: "< 50%"
- compound: "Cc1cc(Cl)ccc1[C@@H]1S[C@@H](CCO)CNc2c1c(C)nn2C (single isomer, unassigned)"
  Emax: "< 50%"
- compound: "COC(=O)c1ccc(C2SCCNc3c2c(-c2ccccn2)nn3C)c(Cl)c1 (stereo not shown)"
  Emax: "< 50%"
- compound: "Cn1nc(-c2ccc(F)cc2)c2c1NCCSC2c1ccc(Cl)cc1Cl (stereo not shown)"
  Emax: "< 50%"
